# target.or.test.system: T1, human HER3-Fc (R&D Systems, 348-RB) (human, UniProt P21860 20-643)
# T1 construct: Bought; also called hHER3-Fc; Fc-HER3; Fc part of the bought chimera not given, not described
# experimental.protocol: HRG competition alphascreen
readout.name: pIC50
The scale used: pIC50 is minus the common logarithm of the concentration in molar units.

### Prompt What pIC50 value was documented for this binder, HER3MS00131 (VHH, 04C07 basic + A46E + N101S) VHH: EVQLVESGGGLVQPGGSLRLSCAASGFTFSSYPMSWVRQAPGKGPEWVSTVSPGGITTSYADSVKGRFTISRDNSKNTLYLQMNSLRPEDTAVYYCLRDLSNRGQGTLVTVSS ?
### Response 8.24

### Prompt Same question for HER3MS00132 (VHH, 04C07 basic + N101S) VHH: EVQLVESGGGLVQPGGSLRLSCAASGFTFSSYPMSWVRQAPGKGPAWVSTVSPGGITTSYADSVKGRFTISRDNSKNTLYLQMNSLRPEDTAVYYCLRDLSNRGQGTLVTVSS please.
### Response 9.00

### Prompt Same question for 04C07 (VHH, also called HER3MS04C07; HER3MS004C07) VHH: EVQLVESGGGLVQAGGSLRLSCAASGFTFSSYPMSWVRQAPGKGPAWVSTVSPGGITTSYADSVKGRFTISRDNAKNTLYLQMNSLKPEDTAVYYCLRDLNNRGQGTQVTVSS please.
### Response 9.74

### Prompt Same question for HER3MS00129 (VHH, 04C07 basic + A46E + N101G) VHH: EVQLVESGGGLVQPGGSLRLSCAASGFTFSSYPMSWVRQAPGKGPEWVSTVSPGGITTSYADSVKGRFTISRDNSKNTLYLQMNSLRPEDTAVYYCLRDLGNRGQGTLVTVSS please.
### Response 8.29

### Prompt Same question for HER3MS00042 (VHH, 04C07 + A14P, A74S, K83R, Q108L; also called HER3MS0042; 04C07 basic variant) VHH: EVQLVESGGGLVQPGGSLRLSCAASGFTFSSYPMSWVRQAPGKGPAWVSTVSPGGITTSYADSVKGRFTISRDNSKNTLYLQMNSLRPEDTAVYYCLRDLNNRGQGTLVTVSS please.
### Response 9.51

### Prompt Same question for HER3MS00130 (VHH, 04C07 basic + N101G) VHH: EVQLVESGGGLVQPGGSLRLSCAASGFTFSSYPMSWVRQAPGKGPAWVSTVSPGGITTSYADSVKGRFTISRDNSKNTLYLQMNSLRPEDTAVYYCLRDLGNRGQGTLVTVSS please.
### Response 9.06
